system: Wolbachia pipientis; test: Anti-Wolbachia Cell-Based Screen; format: functional; set-up: scale not given: in the data most compounds retested in dose-response had high values; settings: 5 µM
The whole screen tested about 48,000 compounds, of which about 13,000 (27%) showed an effect of 50% or more. This is one part of the list.
Kindly supply the reported Percent Effect values for the records listed here.
Field format: number, assumed %, no unit text.

Requested field: Percent Effect. Item: "CCOC(=O)c1sc(NC(=O)CN2C(=O)CCC2=O)c(C#N)c1C"
132.7

Requested field: Percent Effect. Item: CC(C)NC(=O)N1CCCC2(CC(C(=O)Nc3ccccc3)=NO2)C1 (stereo not given)
111.3

Requested field: Percent Effect. Item: "CCOC(=O)c1sc(NC(=O)C(C)C)c(C#N)c1C"
157.4

Requested field: Percent Effect. Item: Cc1ccc(N2CC3(COCCN(Cc4cccnc4)C3)OCC2=O)s1.O=C(O)C(F)(F)F.O=C(O)C(F)(F)F (stereo not given)
6.598

Requested field: Percent Effect. Item: CC(C)C(C(=O)N1CCCN(c2cccnn2)CC1)n1cncn1 (stereo not given)
101.3

Requested field: Percent Effect. Item: "COCCOc1ccc(-c2noc([C@@H]3CCCN3C3CCC3)n2)cn1"
-15.03

Requested field: Percent Effect. Item: "c1cncc(CN2CCC(NCCc3ccc4c(c3)CCO4)CC2)c1"
11.75

Requested field: Percent Effect. Item: "Cc1nnc(C[C@@H]2COC[C@H]3CN(C(=O)C4=CCCC4)C[C@@H]23)o1"
-9.93

Requested field: Percent Effect. Item: Cc1ncccc1NC(=O)C1=NOC2(CCN(Cc3nccs3)C2)C1 (stereo not given)
10.83

Requested field: Percent Effect. Item: Cc1nc(C(C)NC(=O)NCc2nccn2CC(C)C)cs1 (stereo not given)
-2.713

Requested field: Percent Effect. Item: CC(C)NC(=O)N1CCC2(CC(C(=O)NCc3cccnc3)=NO2)C1 (stereo not given)
-3.064

Requested field: Percent Effect. Item: CC(C)(C)CC(=O)N1CCCC2(CC(C(=O)Nc3ccccc3)=NO2)C1 (stereo not given)
98.19

Requested field: Percent Effect. Item: "COc1ncc(-c2nccn2-c2ccccc2CN2CCOCC2)cn1"
4.794

Requested field: Percent Effect. Item: CC(C)C(=O)N1CCCC2(CC(C(=O)NCc3cccnc3)=NO2)C1.O=C(O)C(F)(F)F (stereo not given)
-6.89

Requested field: Percent Effect. Item: "COc1ccc2c(c1)s/c(=N\C(=O)CSCC(=O)Nc1nccs1)n2C"
-4.566

====

test system: Wolbachia pipientis; assay: Anti-Wolbachia Cell-Based Screen; assay type: functional; design: scale not given: in the data most compounds retested in dose-response had high values; conditions: 5 µM
The whole screen tested about 48,000 compounds, of which about 13,000 (27%) showed an effect of 50% or more. Some of the results follow.
measurementLabel: Percent Effect

API: value(readout=Percent Effect, system=Wolbachia pipientis) for record CC1(C(=O)NCc2cccnc2Oc2ccc(F)cc2F)CCCNC1 (centres undefined)
-10.63%

API: value(readout=Percent Effect, system=Wolbachia pipientis) for record "COCc1nnn2c1CN(C(=O)c1ccnnc1)CCC2"
-7.41%

API: value(readout=Percent Effect, system=Wolbachia pipientis) for record "CC(C)c1noc(CN(Cc2ccccc2F)C2CC2)n1"
5.507%

API: value(readout=Percent Effect, system=Wolbachia pipientis) for record O=C1NC(C(=O)NCc2cccnc2Oc2ccccc2F)CO1 (centres undefined)
117.3%

API: value(readout=Percent Effect, system=Wolbachia pipientis) for record "O=C(C1CC=CC1)N1CCCn2nnc(CNc3ncccn3)c2C1"
108.6%

API: value(readout=Percent Effect, system=Wolbachia pipientis) for record CC1(C(=O)NCc2cccnc2Oc2ccc(F)c(F)c2)CCCNC1 (centres undefined)
-1.745%

API: value(readout=Percent Effect, system=Wolbachia pipientis) for record "CCC(=O)N1CCC2(CC1)C(=O)N(C)CCN2Cc1csc(C)n1.O=C(O)C(F)(F)F"
115.6%

API: value(readout=Percent Effect, system=Wolbachia pipientis) for record O=C1NC(C(=O)NCc2cccnc2Oc2ccc(F)c(F)c2)CO1 (centres undefined)
103.5%

API: value(readout=Percent Effect, system=Wolbachia pipientis) for record O=C1NC(C(=O)NCc2cccnc2Oc2ccc(F)cc2F)CO1 (centres undefined)
106.1%
